Exercise: state measured emission maximum for each of the compounds provided.
- procedure.summary: solvent given as SMILES
- condition.set: in CS(C)=O
Numbers only, in nm.

>  <compound>
CN(C)c1ccc2nc(-c3ccc(C(=O)O)cc3)sc2c1

>  <emission maximum / nm>
568

$$$$

Respectfully, I request emission maximum for each entry included below.
1. CCOC(=O)CN(CC(=O)OCC)c1ccc(-c2cc(-c3ccncc3)nc(-c3ccncc3)c2)cc1
2. CCCN1/C(=C/C=C(/C=C/C2=[N+](CCC)c3ccccc3C2(C)C)c2ccc3ccccc3n2)C(C)(C)c2ccccc21

A)
[496, 664]

Respectfully, I request emission maximum for each entry included below.
1. O=C(/C=C/c1ccc(O)c(O)c1)O[C@H](Cc1ccc(O)c(O)c1)C(=O)O
2. Nc1cccc2cccc(N)c12
3. N#Cc1ccc2c(c1)CCc1nc(-c3ccc([N+](=O)[O-])cc3)c3c(c1-2)CCc1cc(C#N)ccc1-3
4. CC1=C(Cc2ccccc2)C(C)=[N+]2C1=C(C)c1c(C)c(-c3csc(N4CCOCC4)n3)c(C)n1[B-]2(F)F
5. O=Cc1cc(O)ccc1O

A)
1: 432; 2: 411; 3: 510; 4: 548; 5: 446

====

- procedure.summary: solvent given as SMILES
- condition.set: in CC(C)=O
Rule: emission maximum below 600 nm gives condition met. Equal to or above 600 nm gives condition not met.

>  <chemical.smiles>
COc1cc(N(c2ccccc2)c2ccc(C=C(C#N)C#N)c(OC)c2)ccc1C=C(C#N)C#N

>  <label.class>
condition met

$$$$
>  <chemical.smiles>
CN(C)c1ccc(/C=C/c2ccnc(/C=C/c3ccc(N(C)C)cc3)n2)cc1

>  <label.class>
condition met

$$$$
>  <chemical.smiles>
CC(=O)Nc1ccc(/C=C2\OC(=O)c3cc(N)ccc32)cc1

>  <label.class>
condition met

$$$$
>  <chemical.smiles>
COc1ccc(/C=C/c2cc(/C=C/c3ccc(N(c4ccccc4)c4ccccc4)cc3)nc(/C=C/c3ccc(N(C)C)cc3)n2)cc1

>  <label.class>
condition met

$$$$
>  <chemical.smiles>
CCC1(CC)c2cc(N(c3ccccc3)c3ccccc3)ccc2-c2c1c1c(c3c2C(CC)(CC)c2cc(N(c4ccccc4)c4ccccc4)ccc2-3)C(CC)(CC)c2cc(N(c3ccccc3)c3ccccc3)ccc2-1

>  <label.class>
condition met

$$$$
>  <chemical.smiles>
O=Cc1cc(N2CCCCC2)c2ccc3c(N4CCCCC4)cc(N4CCCCC4)c4ccc1c2c43

>  <label.class>
condition met

$$$$

Q) Does the reported emission maximum of the following compound sit strictly below 600 nm? c1ccc2nc3cccc(-c4ccc(-n5c6ccccc6c6ccccc65)cc4)c3cc2c1
A) condition met

Q) Does the reported emission maximum of the following compound sit strictly below 600 nm? Cc1ccc(-c2cc(-c3ccccc3)c3c(N)nc(N4CCCC4)c(C#N)c3n2)cc1
A) condition met

Q) Does the reported emission maximum of the following compound sit strictly below 600 nm? COc1ccc(/C=C/C2=CC(/C=C/c3ccc(OC)c4ccccc34)=[O+][B-](F)(F)O2)c2ccccc12
A) condition not met

Q) Does the reported emission maximum of the following compound sit strictly below 600 nm? O=[N+]([O-])c1ccc(NCCN(Cc2c3ccccc3cc3ccccc23)c2ccc([N+](=O)[O-])cc2[N+](=O)[O-])c([N+](=O)[O-])c1
A) condition met

Q) Does the reported emission maximum of the following compound sit strictly below 600 nm? CC(C)(C)c1ccc2c(c1)c1cc(C(C)(C)C)ccc1n2-c1cccc(-c2nc(-c3cccc(P(=O)(c4ccccc4)c4ccccc4)c3)nc(-c3cccc(P(=O)(c4ccccc4)c4ccccc4)c3)n2)c1
A) condition met

Q) Does the reported emission maximum of the following compound sit strictly below 600 nm? COc1ccccc1C1=C2C(C)=CC(C)=[N+]2[B-](F)(F)n2c(C)cc(C)c21
A) condition met

Q) Does the reported emission maximum of the following compound sit strictly below 600 nm? COC1=C/C(=C\C=C2C=CN(Cc3ccc(Br)cc3)C=C2)C=CC1=O
A) condition not met

Q) Does the reported emission maximum of the following compound sit strictly below 600 nm? O=Cc1cc(O)ccc1O
A) condition met

Q) Does the reported emission maximum of the following compound sit strictly below 600 nm? c1ccc(N2c3ccc4ccccc4c3-c3c4ccccc4nc[n+]3[B-]2(c2ccccc2)c2ccccc2)cc1
A) condition not met

Q) Does the reported emission maximum of the following compound sit strictly below 600 nm? CC(=O)O[B-]1(OC(C)=O)OC(/C=C/c2cccc3ccccc23)=CC(/C=C/c2cccc3ccccc23)=[O+]1
A) condition met

====

- procedure.summary: solvent given as SMILES
- condition.set: in CC#N
Rule: emission maximum below 500 nm gives satisfied. Equal to or above 500 nm gives not satisfied.

Recorded results for 5 compounds are shown here.
>  <compound>
CN(C)c1ccc(/C=C/c2cc[n+](CCCCC[n+]3ccc(/C=C/c4ccc(N(C)C)cc4)cc3)cc2)cc1

>  <label.class>
not satisfied

$$$$
>  <compound>
CN(C)c1ccc(/C=C/c2nc3cc(Br)ccc3nc2-c2ccccc2)cc1

>  <label.class>
not satisfied

$$$$
>  <compound>
Cc1ccc2nc3c(=O)n(C)c(=O)nc-3n(C)c2c1

>  <label.class>
not satisfied

$$$$
>  <compound>
CC(C)(C)C1Nc2ccccc2C(=O)N1Cc1ccccc1 (stereo not drawn)

>  <label.class>
satisfied

$$$$
>  <compound>
O=c1oc2cc3ccccc3cc2nc1-c1ccccc1

>  <label.class>
not satisfied

$$$$

Q) Does the reported emission maximum of the following compound sit strictly below 500 nm? O=c1c2ccccc2c2c3c(cccc13)c(-c1ccccc1)c1c3cccc4cccc(c43)c12
A) not satisfied

Q) Does the reported emission maximum of the following compound sit strictly below 500 nm? COc1cc2c3c(c4cc(OC)c(OC)c(OC)c4c2c(OC)c1OC)=[N+]1C(=C(c2c(C)cc(C)cc2C)c2cc4c5cc(OC)c(OC)c(OC)c5c5c(OC)c(OC)c(OC)cc5c4n2[B-]1(F)F)C=3
A) not satisfied

Q) Does the reported emission maximum of the following compound sit strictly below 500 nm? COC(=O)c1nc2c(N(C)C)nc(N(C)C)nc2n1Cc1ccccc1
A) satisfied

Q) Does the reported emission maximum of the following compound sit strictly below 500 nm? CCN(CC)c1ccc2c(-c3ccc(S(=O)(=O)O)cc3S(=O)(=O)[O-])c3ccc(=[N+](CC)CC)cc-3oc2c1
A) not satisfied

Q) Does the reported emission maximum of the following compound sit strictly below 500 nm? CCOC(=O)COc1ccc(C(c2c(C)[nH]c3ccccc23)c2c(C)[nH]c3ccccc23)cc1OC
A) satisfied

====

- procedure.summary: solvent given as SMILES
- condition.set: in C1CCOC1
property.measured: emission maximum (nm)
One number for each entry, in nm.

These recorded examples may help you get a feel for the data.
>  <compound>
c1ccc(-c2ccc(-c3ccc(-c4ccccc4)cc3)cc2)cc1

>  <measured>
368

$$$$
>  <compound>
Fc1c(F)c(F)c([B-]2(c3c(F)c(F)c(F)c(F)c3F)Oc3c(ccc4c5c(ccc34)C=[N+](c3ccccc3)[B-](c3c(F)c(F)c(F)c(F)c3F)(c3c(F)c(F)c(F)c(F)c3F)O5)C=[N+]2c2ccccc2)c(F)c1F

>  <measured>
578

$$$$
>  <compound>
Cc1cc(C)n2c1C=C1c3ccccc3C(c3cccn3C)=[N+]1[B-]2(F)F

>  <measured>
608

$$$$
>  <compound>
CCCCCCc1ccc(-n2c3[n+](c4c5ccccc5c5ccccc5c42)[B-](C)(C)c2ccc4ccccc4c2-3)cc1

>  <measured>
444

$$$$
>  <compound>
F[B-]1(F)OC(c2ccc(C(F)(F)F)cc2)=Cc2cc(Cl)nc[n+]21

>  <measured>
428

$$$$

Respectfully, I request emission maximum for each entry included below.
1. Cc1ccc(/C=C/C(F)(F)F)c(N)c1
2. COc1ccc(C2=C(c3ccc(OC)cc3)[Si](c3ccccc3)(c3ccccc3)c3ccccc32)cc1
3. O=[N+]([O-])c1ccc(NCCN(Cc2c3ccccc3cc3ccccc23)c2ccc([N+](=O)[O-])cc2[N+](=O)[O-])c([N+](=O)[O-])c1
4. C[Si](C)(C)c1ccc(-c2ccc(-c3ccc(-c4ccc(-c5ccc([Si](C)(C)C)s5)s4)c4nsnc34)s2)s1
5. CCN(CC)c1ccc2cc(/C=C/c3cccc[n+]3CCCS(=O)(=O)[O-])c(=O)oc2c1
6. COc1ccc(C(=Cc2ccc(C#N)cc2)c2ccc(OC)cc2)cc1
7. CC(C)(C)c1ccc(C2=C(Br)C3=C(c4ccccc4)c4c(Br)c(-c5ccc(C(C)(C)C)cc5)c(-c5ccc(C(C)(C)C)cc5)n4[B-](F)(F)[N+]3=C2c2ccc(C(C)(C)C)cc2)cc1

A)
1: 423; 2: 457; 3: 416; 4: 656; 5: 641; 6: 395; 7: 617

Respectfully, I request emission maximum for each entry included below.
1. O=C1/C(=C\c2ccc(N(c3ccccc3)c3ccccc3)cc2)S(=O)(=O)c2ccccc21
2. C(=C\c1cc(/C=C/c2ccc(N(c3ccccc3)c3ccccc3)cc2)nc(/C=C/c2ccc(N(c3ccccc3)c3ccccc3)cc2)n1)/c1ccc(N(c2ccccc2)c2ccccc2)cc1
3. N#Cc1ccc(N(c2ccc(C#N)cc2)c2ccc3c4cccc5c(N(c6ccc(C#N)cc6)c6ccc(C#N)cc6)ccc(c6cccc2c63)c54)cc1

A)
630
514
531

Respectfully, I request emission maximum for each entry included below.
1. CC(=O)O[B-]1(OC(C)=O)OC(/C=C/c2ccc(C)cc2)=CC(/C=C/c2ccc(C)cc2)=[O+]1
2. C(=C\c1cc2ccccc2c2ccccc12)/c1c2ccccc2cc2ccccc12
3. CCN(CC)c1ccc2cc(-c3csc(NC(C)=O)c3C#N)c(=O)oc2c1
4. c1ccc(-c2nc(-c3ccccc3)nc(-c3ccc(-n4c5ccccc5c5c6oc7ccccc7c6ccc54)cc3)n2)cc1
5. COc1cc2c(cc1-c1ccc(Cl)cc1)Cc1c3c(c4c(c1-2)-c1cc(OC)c(-c2ccc(Cl)cc2)cc1C4)C(=O)N(CCC(C)C)C3=O

A)
1. 484
2. 510
3. 457
4. 473.68
5. 466
